tested on: Sphaerotheca fuliginea; assay: Sphaerotheca test (cucumber)/protective; conditions: cucumber plants, protective spray, 500 ppm active ingredient, evaluation 7 days after inoculation
measured-attribute: efficacy (%)
The response must be a number in % with no trailing unit.

Below, each entry is followed by its recorded efficacy result.
Name the reported efficacy value associated with the molecule CC(CF)(CF)C(O)(COc1ccc(Cl)cc1)c1cncs1 (stereo not shown) [Compound 9]
95

Name the reported efficacy value associated with the molecule CC1(C(O)(COc2ccc(Br)cc2)c2cncs2)CCCCC1 (stereo not shown) [Compound 33]
100

Name the reported efficacy value associated with the molecule OC(Cc1cncs1)(Cc1ccccc1F)C1(Cl)CC1 (stereo not shown) [Compound 60]
100

Name the reported efficacy value associated with the molecule CC(C)(C)C(O)(COc1ccc(-c2ccccc2)cc1)c1cncs1 (stereo not shown) [Compound 50]
100

Name the reported efficacy value associated with the molecule CC(C)(C)C(O)(CCc1ccc(Cl)cc1)c1cncs1 (stereo not shown) [Compound 5]
100

Further cases:
Name the reported efficacy value associated with the molecule CC(C)(C)C(O)(COc1ccc(Oc2ccc(F)cc2)cc1)c1cncs1 (stereo not shown) [Compound 38]
98

Name the reported efficacy value associated with the molecule CC(C)(C)C(O)(COc1ccc(Cl)cc1)c1cnc(S)s1 (stereo not shown) [Compound 12]
98

Name the reported efficacy value associated with the molecule CC(=O)c1ccc(-c2ccc(OCC(O)(c3cncs3)C(C)(C)C)cc2)cc1 (stereo not shown) [Compound 31]
100

Name the reported efficacy value associated with the molecule CC(C)(C)C(O)(COc1ccc(-c2ccc(Br)cc2)cc1)c1cncs1 (stereo not shown) [Compound 52]
100

Name the reported efficacy value associated with the molecule CC(C)C(O)(COc1ccc(I)cc1)c1cncs1 (stereo not shown) [Compound 21]
85

====

system: Blumeria graminis f.sp. hordei; assay: Blumeria graminis test (barley)/protective; format: in vivo; conditions: barley plants, protective spray, 500 ppm active ingredient, evaluation 7 days after inoculation
measured-attribute: efficacy
Express the reported value numerically, then name its unit.

Below, each entry is followed by its recorded efficacy result.
Name the reported efficacy value associated with the molecule CC(C)(/C=C/Cl)C(O)(COc1ccc(I)cc1)c1cncs1 (centres unmarked)
94%

Name the reported efficacy value associated with the molecule CC(C)(C)C(O)(COc1ccc(C2CC2)cc1)c1cncs1 (centres unmarked)
100%

Name the reported efficacy value associated with the molecule CC(C)(C)C(O)(COc1ccc(SC(F)(F)F)cc1)c1cncs1 (centres unmarked)
100%

Name the reported efficacy value associated with the molecule CC(C)(C)C(O)(COc1ccc(Cl)cc1)c1cnc(S)s1 (centres unmarked)
89%

Here is another molecule to look at.
Name the reported efficacy value associated with the molecule OC(Cc1cncs1)(Cc1ccccc1F)C1(Cl)CC1 (centres unmarked)
100%

====

tested on: Sphaerotheca fuliginea; assay: Sphaerotheca test (cucumber)/protective; settings: cucumber plants, protective spray, 500 ppm active ingredient, evaluation 7 days after inoculation
List of efficacy values.
The response must be a number in % with no trailing unit.

Below, each entry is followed by its recorded efficacy result.
Name the reported efficacy value associated with the molecule CC(C)(C)C(O)(COc1ccc(C2CCCC2)cc1)c1cncs1 (stereo not drawn)
94

Name the reported efficacy value associated with the molecule CC(C)(C)C(O)(COc1ccc(Oc2ccc(Cl)cc2)cc1)c1cncs1 (stereo not drawn)
98

Name the reported efficacy value associated with the molecule COc1ccc(CCC(O)(c2cncs2)C(C)(C)C)cc1 (stereo not drawn)
78

Name the reported efficacy value associated with the molecule CC(C)(C)C(O)(CCc1ccc(SC(F)(F)F)cc1)c1cncs1 (stereo not drawn)
100

Name the reported efficacy value associated with the molecule CC1(C(O)(COc2cccc(Br)c2)c2cncs2)CC1 (stereo not drawn)
93

Name the reported efficacy value associated with the molecule OC(Cc1ccccc1Cl)(c1cncs1)C1(F)CC1 (stereo not drawn)
70

Name the reported efficacy value associated with the molecule OC(Cc1cncs1)(Cc1ccccc1Cl)C1(Cl)CC1 (stereo not drawn)
100

Name the reported efficacy value associated with the molecule CC(C)(C)C(O)(CCc1ccc(Br)cc1)c1cncs1 (stereo not drawn)
100

Further cases:
Name the reported efficacy value associated with the molecule CC1(C(O)(COc2ccc(Cl)cc2)c2cncs2)CC1 (stereo not drawn)
95

Name the reported efficacy value associated with the molecule CC(C)(C)C(O)(CCc1ccc(OC(F)(F)F)cc1)c1cncs1 (stereo not drawn)
100

Name the reported efficacy value associated with the molecule CC(C)(C)C(O)(COc1ccc(Oc2ccc(C(F)(F)F)cc2)cc1)c1cncs1 (stereo not drawn)
96

====

system: Sphaerotheca fuliginea; assay: Sphaerotheca test (cucumber)/protective; conditions: cucumber plants, protective spray, 500 ppm active ingredient, evaluation 7 days after inoculation
1 if efficacy is below 90%. -1 if not; exact matches included in -1.

See these solved cases before continuing.
Quick check: does CC(CF)(CF)C(O)(COc1ccc(Cl)cc1)Cc1cncs1 (stereo not shown) have efficacy under 90%?
-1

Quick check: does CC(C)C(O)(COc1ccc(Cl)cc1)c1cncs1 (stereo not shown) have efficacy under 90%?
1

Quick check: does CC1(C(O)(COc2ccc(Cl)cc2)c2cncs2)CCCCC1 (stereo not shown) have efficacy under 90%?
-1

Quick check: does CC(C)(C)C(O)(COc1ccc(Oc2ccc(Br)cc2)cc1)c1cncs1 (stereo not shown) have efficacy under 90%?
-1

Quick check: does CC(CF)(CF)C(O)(COc1ccc(Br)cc1)c1cncs1 (stereo not shown) have efficacy under 90%?
-1

Further cases:
Quick check: does CC(C)C(O)(COc1ccc(Br)cc1)c1cncs1 (stereo not shown) have efficacy under 90%?
-1

Quick check: does CC1(C(O)(COc2ccccc2Br)c2cncs2)CC1 (stereo not shown) have efficacy under 90%?
1

Quick check: does CC(C)(C)C(O)(COc1ccc(Br)cc1)c1cncs1 (stereo not shown) have efficacy under 90%?
-1

====

system: Sphaerotheca fuliginea; experiment: Sphaerotheca test (cucumber)/protective; conditions: cucumber plants, protective spray, 500 ppm active ingredient, evaluation 7 days after inoculation
measured-attribute: efficacy (%)
The response must be a number in % with no trailing unit.

Below, each entry is followed by its recorded efficacy result.
Name the reported efficacy value associated with the molecule CC(C)(C)C(O)(COc1ccc(OC(F)(F)F)cc1)c1cncs1 (centres unmarked)
88

Name the reported efficacy value associated with the molecule CC(C)(C)C(O)(COc1ccc(F)cc1)c1cncs1 (centres unmarked)
94

Name the reported efficacy value associated with the molecule CC(C)(C)C(O)(COc1ccc(I)cc1)c1cncs1 (centres unmarked)
100

Further cases:
Name the reported efficacy value associated with the molecule CC(C)(/C=C/Cl)C(O)(COc1ccc(I)cc1)c1cncs1 (centres unmarked)
94

Name the reported efficacy value associated with the molecule CC(C)(C)C(O)(COc1ccc(-c2ccc(C#N)cc2)cc1)c1cncs1 (centres unmarked)
94

Name the reported efficacy value associated with the molecule CC1(C(O)(COc2cccc(I)c2)c2cncs2)CC1 (centres unmarked)
75

Name the reported efficacy value associated with the molecule CC(C)(C)C(O)(COc1ccc(Cl)cc1)Cc1cncs1 (centres unmarked)
100

Name the reported efficacy value associated with the molecule CC(C)(/C=C/Cl)C(O)(COc1ccc(Cl)cc1)c1cncs1 (centres unmarked)
95

====

List of efficacy values.
tested on: Sphaerotheca fuliginea; test: Sphaerotheca test (cucumber)/protective; details: cucumber plants, protective spray, 500 ppm active ingredient, evaluation 7 days after inoculation
The response must be a number in % with no trailing unit.

Below, each entry is followed by its recorded efficacy result.
Name the reported efficacy value associated with the compound CC(C)C(O)(COc1ccc(SC(F)(F)F)cc1)c1cncs1 (stereo not drawn)
93

Name the reported efficacy value associated with the compound CC(C)(C)C(O)(COc1ccc(C2CC2)cc1)c1cncs1 (stereo not drawn)
93

Name the reported efficacy value associated with the compound OC(Cc1ccccc1Cl)(c1cncs1)C1(Cl)CC1 (stereo not drawn)
83

Name the reported efficacy value associated with the compound CC(C)(C)C(O)(CCc1ccc(Cl)cc1)Cc1cncs1 (stereo not drawn)
95

Here is another compound to look at.
Name the reported efficacy value associated with the compound CC(C)(C)c1ccc(OCC(O)(c2cncs2)C(C)(C)C)cc1 (stereo not drawn)
90

====

tested on: Sphaerotheca fuliginea; assay: Sphaerotheca test (cucumber)/protective; settings: cucumber plants, protective spray, 500 ppm active ingredient, evaluation 7 days after inoculation
measured-attribute: efficacy (%)
The response must be a number in % with no trailing unit.

Below, each entry is followed by its recorded efficacy result.
Name the reported efficacy value associated with the compound CC1(C(O)(COc2ccc(I)cc2)c2cncs2)CCCCC1 (stereo not shown)
100

Name the reported efficacy value associated with the compound CC(C)(C)C(O)(COc1ccc(-c2ccc(Cl)cc2)cc1)c1cncs1 (stereo not shown)
98

Name the reported efficacy value associated with the compound CC(CF)(CF)C(O)(COc1ccc(I)cc1)c1cncs1 (stereo not shown)
100

Name the reported efficacy value associated with the compound CC(C)(C)C(O)(COc1ccc(SC(F)(F)F)cc1)c1cncs1 (stereo not shown)
95

Name the reported efficacy value associated with the compound OC(COc1ccc(Cl)cc1)(c1cncs1)C1(Cl)CC1 (stereo not shown)
78

Further cases:
Name the reported efficacy value associated with the compound CC(C)(C)C(O)(COc1ccc(C2CCCCC2)cc1)c1cncs1 (stereo not shown)
100

Name the reported efficacy value associated with the compound OC(Cc1cnc(I)s1)(Cc1ccccc1Cl)C1(Cl)CC1 (stereo not shown)
100

meta.source: patent US8440836B2
